This collection of values is drawn from ChEMBL document CHEMBL5058577.

Tested on: U2OS
Assay: Multiplex assay against U2OS
Format: toxicity, cell-based
Settings: human, 24 h, 1 µM, compound concentration 1 uM, replicate 2
Readout Name: Population Apoptotic (%)
Number only, in %; omit the unit.

>  <Molecule>
O=C(O)c1cc2ccccc2c(Cc2c(O)c(C(=O)O)cc3ccccc23)c1O [PAMOIC ACID]

>  <Population Apoptotic (%)>
76

$$$$
>  <Molecule>
c1cc(OCCCN2CCCCC2)ccc1CN1CCCCC1 [JNJ-5207852]

>  <Population Apoptotic (%)>
66

$$$$
>  <Molecule>
CN(C)c1ccnc2sc3c(=O)n(N4CCCCCC4)cnc3c12

>  <Population Apoptotic (%)>
72

$$$$
>  <Molecule>
C[C@H](NC(=O)c1c(C(F)F)nn(C)c1Oc1cccc(C(F)(F)F)c1)c1ccc(C(=O)O)cc1 [PALUPIPRANT]

>  <Population Apoptotic (%)>
94

$$$$
>  <Molecule>
COc1c(C)cc(NC(=O)c2nn(Cc3ccc(F)cc3)c3c2CN(C(=O)c2ccc[nH]2)C[C@]3(C)C(N)=O)cc1C

>  <Population Apoptotic (%)>
61

$$$$
>  <Molecule>
C[C@@H]1C[C@H]2[C@@H]3CCC4=CC(=O)C=C[C@]4(C)[C@@]3(F)[C@@H](O)C[C@]2(C)[C@@]1(O)C(=O)CO [DEXAMETHASONE]

>  <Population Apoptotic (%)>
90

$$$$

Dear colleague, I am looking for the recorded Population Apoptotic (%) of the following molecule: Cc1ccc(-c2ccc(F)cc2COc2ccc(CCC(=O)O)cc2)cc1
100

Dear colleague, I am looking for the recorded Population Apoptotic (%) of the following molecule: N[C@@]1(C(=O)O)CO[C@H]2[C@H](C(=O)O)[C@H]21 [LY-379268]
100
